- target.of.assay: human NaV 1.8 (Homo sapiens)
- Sequence (Q9Y5Y9 whole entry, looked up): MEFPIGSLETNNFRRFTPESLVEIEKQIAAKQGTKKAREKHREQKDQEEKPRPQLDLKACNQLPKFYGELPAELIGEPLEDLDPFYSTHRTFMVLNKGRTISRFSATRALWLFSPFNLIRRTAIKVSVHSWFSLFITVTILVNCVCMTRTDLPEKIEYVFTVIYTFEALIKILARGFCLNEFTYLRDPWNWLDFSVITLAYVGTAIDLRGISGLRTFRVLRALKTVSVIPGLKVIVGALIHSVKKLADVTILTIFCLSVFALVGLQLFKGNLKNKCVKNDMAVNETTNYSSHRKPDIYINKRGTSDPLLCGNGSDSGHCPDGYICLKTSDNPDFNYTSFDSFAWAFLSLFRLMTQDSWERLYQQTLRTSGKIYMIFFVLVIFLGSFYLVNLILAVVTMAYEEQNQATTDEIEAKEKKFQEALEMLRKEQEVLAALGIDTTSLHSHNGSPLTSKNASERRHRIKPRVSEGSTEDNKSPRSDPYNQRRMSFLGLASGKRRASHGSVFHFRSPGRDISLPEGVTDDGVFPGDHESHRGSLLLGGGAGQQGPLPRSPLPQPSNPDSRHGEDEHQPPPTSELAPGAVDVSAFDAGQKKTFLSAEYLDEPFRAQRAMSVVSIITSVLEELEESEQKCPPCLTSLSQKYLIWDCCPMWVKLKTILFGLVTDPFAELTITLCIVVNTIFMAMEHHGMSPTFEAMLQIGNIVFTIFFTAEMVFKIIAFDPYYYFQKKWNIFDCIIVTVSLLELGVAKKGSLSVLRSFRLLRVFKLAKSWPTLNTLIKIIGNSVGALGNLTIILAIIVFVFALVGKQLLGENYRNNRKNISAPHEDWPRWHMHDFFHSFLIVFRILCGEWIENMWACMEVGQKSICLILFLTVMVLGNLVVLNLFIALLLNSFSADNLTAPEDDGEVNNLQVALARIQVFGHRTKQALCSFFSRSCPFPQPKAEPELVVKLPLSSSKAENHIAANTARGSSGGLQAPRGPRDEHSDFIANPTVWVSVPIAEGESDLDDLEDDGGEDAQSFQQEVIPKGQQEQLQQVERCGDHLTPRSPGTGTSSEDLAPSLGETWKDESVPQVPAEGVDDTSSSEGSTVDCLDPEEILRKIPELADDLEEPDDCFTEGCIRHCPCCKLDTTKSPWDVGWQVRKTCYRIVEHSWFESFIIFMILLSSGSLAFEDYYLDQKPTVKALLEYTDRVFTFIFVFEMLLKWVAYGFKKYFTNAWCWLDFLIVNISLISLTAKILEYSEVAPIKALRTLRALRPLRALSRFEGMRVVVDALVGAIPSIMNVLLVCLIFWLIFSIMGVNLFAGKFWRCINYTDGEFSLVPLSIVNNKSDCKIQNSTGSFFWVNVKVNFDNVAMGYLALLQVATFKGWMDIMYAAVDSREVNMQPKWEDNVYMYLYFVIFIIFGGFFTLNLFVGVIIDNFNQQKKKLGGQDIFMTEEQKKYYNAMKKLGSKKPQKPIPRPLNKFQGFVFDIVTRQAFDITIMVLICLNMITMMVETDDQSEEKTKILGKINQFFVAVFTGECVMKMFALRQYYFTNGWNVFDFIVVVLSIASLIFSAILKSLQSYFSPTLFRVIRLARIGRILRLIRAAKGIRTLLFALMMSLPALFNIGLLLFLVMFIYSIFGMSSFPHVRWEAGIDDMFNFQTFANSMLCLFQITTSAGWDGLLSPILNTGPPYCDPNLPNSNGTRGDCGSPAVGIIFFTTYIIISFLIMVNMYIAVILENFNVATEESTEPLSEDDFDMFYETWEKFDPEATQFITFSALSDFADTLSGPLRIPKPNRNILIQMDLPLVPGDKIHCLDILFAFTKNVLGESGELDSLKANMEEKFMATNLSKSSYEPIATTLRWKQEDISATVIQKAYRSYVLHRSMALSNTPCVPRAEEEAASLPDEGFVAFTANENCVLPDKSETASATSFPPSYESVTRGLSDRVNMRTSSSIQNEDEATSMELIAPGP
- assay.protocol: E-VIPR Assay for Detecting and Measuring NaV Inhibition Properties
- applied.conditions: HEK cells expressing a truncated form of human NaV 1.8; HS = human serum; read-out: EVIPR HS IC50
pIC50: −log10 of the molar value.
readout.name: pIC50

[[record]]
smiles_structure = "COC(=O)c1cc(NC(=O)c2c(Oc3ccc(F)c(F)c3C)ccc(C(F)(F)F)c2C)c(C)cn1"
readout_name = "pIC50"
endpoint_value = "6.00 to 6.30"

[[record]]
smiles_structure = "COC(=O)c1cc(NC(=O)c2c(Oc3ccc(OC(F)(F)F)c(F)c3OC)ccc(C(F)(F)F)c2F)c(C2CC2)cn1"
readout_name = "pIC50"
endpoint_value = "≤ 6.00"

[[record]]
smiles_structure = "COC(=O)c1nccc(NC(=O)c2c(Oc3ccc(F)c(F)c3C)ccc(C(F)(F)F)c2C)c1C"
readout_name = "pIC50"
endpoint_value = "≤ 6.00"

[[record]]
smiles_structure = "[2H]C([2H])([2H])Oc1cc(OC(F)(F)F)ccc1Oc1ccc(C(F)(F)F)c(F)c1C(=O)Nc1ccc(C(=O)OC)nc1"
readout_name = "pIC50"
endpoint_value = "6.30 to 7.00"

[[record]]
smiles_structure = "COC(=O)c1cc(NC(=O)c2c(Oc3ccc(OC(F)(F)F)cc3OC)ccc(C3CC3)c2C)c(C)cn1"
readout_name = "pIC50"
endpoint_value = "6.30 to 7.00"

[[record]]
smiles_structure = "COC(=O)c1ccc(NC(=O)c2c(Oc3ccc(F)cc3OC)ccc(C(F)(F)F)c2F)cn1"
readout_name = "pIC50"
endpoint_value = "≤ 6.00"

[[record]]
smiles_structure = "COC(=O)c1ccc(NC(=O)c2c(Oc3ccc(OC(F)(F)F)cc3)ccc(C(F)(F)F)c2F)cn1"
readout_name = "pIC50"
endpoint_value = "≤ 6.00"


====

- target.of.assay: UniProt:Q9Y5Y9
- assay.protocol: E-VIPR Assay for Detecting and Measuring NaV Inhibition Properties
- applied.conditions: HEK cells expressing a truncated form of human NaV 1.8; HS = human serum; read-out: EVIPR HS IC50
readout.name: IC50

[[record]]
compound = "COC(=O)c1nccc(NC(=O)c2c(Oc3ccc(OC(F)(F)F)c(F)c3OC)ccc(C(F)(F)F)c2F)c1F [Compound 30]"
endpoint_value = "100 to 500 nM"

[[record]]
compound = "[2H]C([2H])([2H])Oc1cc(OC(F)(F)F)ccc1Oc1ccc(C(F)(F)F)cc1C(=O)Nc1ccc(C(=O)OC)nc1 [Compound 12]"
endpoint_value = "≥ 1000 nM"

[[record]]
compound = "COC(=O)c1cc(NC(=O)c2c(Oc3ccc(OC(F)(F)F)c(F)c3OC)ccc(C(F)(F)F)c2F)cc(C(=O)OC)n1 [Compound 35]"
endpoint_value = "100 to 500 nM"

[[record]]
compound = "COC(=O)c1nccc(NC(=O)c2c(Oc3ccc(OC(F)(F)F)c(F)c3OC)ccc(C(F)(F)F)c2C)c1C [Compound 32]"
endpoint_value = "≥ 1000 nM"

[[record]]
compound = "COC(=O)c1nccc(NC(=O)c2c(Oc3ccc(OC(F)(F)F)c(F)c3OC)ccc(C(F)(F)F)c2C)c1F [Compound 31]"
endpoint_value = "≥ 1000 nM"

[[record]]
compound = "[2H]C([2H])([2H])Oc1cc(OC(F)(F)F)ccc1Oc1cc(C(F)(F)F)c(F)cc1C(=O)Nc1ccc(C(=O)OC)nc1 [Compound 1]"
endpoint_value = "≥ 1000 nM"

[[record]]
compound = "COC(=O)c1cc(NC(=O)c2c(Oc3ccc(OC(F)(F)F)c(F)c3C)ccc(C(F)(F)F)c2C)c(C)cn1 [Compound 16]"
endpoint_value = "< 100 nM"

